# TEST_SYSTEM: QuantiLum Luciferase (Photinus pyralis)
# Construct: purchased Promega Corporation E170
# EXPERIMENT_DESCRIPTION: Scaffolds: light emission of luciferin derivatives with QuantiLum luciferase alone, + Co A, + DTT, + Co A and DTT
# Type: biochemical, firefly
# CONDITION_SET: Derivative Conc. 12.5; Alone
# Procedure: The DTT, Coenzyme A, and QuantiLum stock solutions are the same as those described herein. […] Reactions in these plates were initiated by addition of 50 µl of solution containing QuantiLum luciferase using a 12 channel micropipette. […] After addition of the enzyme solution to the last row on each plate, the plate was sealed and read on a Veritas luminometer.
Param threshold (20000) applies to light emission values; output condition met when value >= threshold, condition not met when value < threshold.

query: I'd appreciate it if you could say whether CCN(CC)c1ccc2nc(C3=NC(C(=O)O)CS3)sc2c1 (centres unmarked) [diethylaminoluciferin] has light emission values at least equal to 20000.
result: condition met

query: # iterate: CN(Cc1ccccc1)c1ccc2nc(C3=NC(C(=O)O)CS3)sc2c1 (centres unmarked) [methylbenzylaminoluciferin]
result: condition met

query: # iterate: NCCCOc1ccc2nc(C3=N[C@@H](C(=O)O)CS3)sc2c1 [MAO-3, 6-Aminopropoxyluciferin]
result: condition met

query: # iterate: COc1ccc2nc(C3=N[C@@H](C(=O)O)CS3)sc2c1 [luciferin 6-methyl ether, D-luciferin 6' methyl ether, reference compound]
result: condition not met

query: # iterate: O=C(O)[C@H]1CSC(c2nc3ccc(OCc4ccccc4)cc3s2)=N1 [luciferin 6-benzyl ether, reference compound]
result: condition met

query: # iterate: O=C(O)[C@H]1CSC(c2ccc3cc(Oc4ccc(C(F)(F)F)cc4[N+](=O)[O-])ccc3n2)=N1 [GST #3]
result: condition not met

query: # iterate: COC(=O)[C@H]1CSC(c2ccc3cc(Oc4ccc(C(F)(F)F)cc4[N+](=O)[O-])ccc3n2)=N1 [GST #4]
result: condition not met

====

# TEST_SYSTEM: QuantiLum Luciferase (Photinus pyralis)
# Construct: purchased Promega Corporation E170
# EXPERIMENT_DESCRIPTION: Scaffolds: light emission of luciferin derivatives with QuantiLum luciferase alone, + Co A, + DTT, + Co A and DTT
# Format: biochemical, firefly
# CONDITION_SET: Derivative Conc. 1.07; Co A
I'd appreciate it if you marked entries 1 when light emission values is lower than 50000 and 0 when it is not.

query: Is light emission values strictly under 50000 for the entry COC(=O)[C@H]1CSC(c2ccc3cc(Oc4ccc(C(F)(F)F)cc4[N+](=O)[O-])ccc3n2)=N1 [GST #4] ?
result: 1

query: # iterate: CCN(CC)c1ccc2nc(C3=NC(C(=O)O)CS3)sc2c1 (centres unmarked) [diethylaminoluciferin]
result: 0

query: # iterate: COc1ccc2nc(C3=N[C@@H](C(=O)O)CS3)sc2c1 [luciferin 6-methyl ether, D-luciferin 6' methyl ether, reference compound]
result: 1

query: # iterate: CN(Cc1ccccc1)c1ccc2nc(C3=NC(C(=O)O)CS3)sc2c1 (centres unmarked) [methylbenzylaminoluciferin]
result: 0

query: # iterate: NCCCOc1ccc2nc(C3=N[C@@H](C(=O)O)CS3)sc2c1 [MAO-3, 6-Aminopropoxyluciferin]
result: 0

query: # iterate: O=C(O)[C@H]1CSC(c2nc3ccc(OCCO)cc3s2)=N1 [2hydroxyethoxyluciferin ether]
result: 1

query: # iterate: O=C(O)[C@H]1CSC(c2ccc3cc(Oc4ccc(C(F)(F)F)cc4[N+](=O)[O-])ccc3n2)=N1 [GST #3]
result: 1

====

# TEST_SYSTEM: QuantiLum Luciferase (Photinus pyralis, UniProt P08659)
# Construct: purchased Promega Corporation E170
# Sequence (P08659 whole entry): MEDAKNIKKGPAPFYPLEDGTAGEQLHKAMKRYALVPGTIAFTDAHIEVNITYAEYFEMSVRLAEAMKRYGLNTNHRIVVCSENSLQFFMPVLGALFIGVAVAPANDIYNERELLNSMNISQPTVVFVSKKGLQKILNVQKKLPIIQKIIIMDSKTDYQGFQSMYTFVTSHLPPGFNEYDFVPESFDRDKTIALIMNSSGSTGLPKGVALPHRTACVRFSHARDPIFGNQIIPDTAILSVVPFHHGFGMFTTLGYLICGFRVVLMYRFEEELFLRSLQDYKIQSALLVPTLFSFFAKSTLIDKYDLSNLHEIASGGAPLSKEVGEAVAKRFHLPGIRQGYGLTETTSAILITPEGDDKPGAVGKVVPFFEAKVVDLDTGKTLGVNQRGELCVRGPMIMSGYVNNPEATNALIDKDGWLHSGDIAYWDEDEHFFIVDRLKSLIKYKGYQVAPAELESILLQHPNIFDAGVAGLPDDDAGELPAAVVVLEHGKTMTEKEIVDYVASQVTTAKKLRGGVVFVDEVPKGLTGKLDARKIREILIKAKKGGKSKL
# EXPERIMENT_DESCRIPTION: Scaffolds: light emission of luciferin derivatives with QuantiLum luciferase alone, + Co A, + DTT, + Co A and DTT
# Format: biochemical, firefly
# CONDITION_SET: Derivative Conc. 25; DTT
# Experimental: The DTT, Coenzyme A, and QuantiLum stock solutions are the same as those described herein. […] Reactions in these plates were initiated by addition of 50 µl of solution containing QuantiLum luciferase using a 12 channel micropipette. […] After addition of the enzyme solution to the last row on each plate, the plate was sealed and read on a Veritas luminometer.
Consider the following molecules; for each one, report its light emission values.
Lab note: jot the number down without any unit.

query: Give QuantiLum Luciferase (Photinus pyralis, UniProt P08659) light emission values for "NCCCOc1ccc2nc(C3=N[C@@H](C(=O)O)CS3)sc2c1"
result: 733675

query: # iterate: "O=C(O)[C@H]1CSC(c2ccc3cc(Oc4ccc(C(F)(F)F)cc4[N+](=O)[O-])ccc3n2)=N1"
result: 21256

query: # iterate: COc1ccc2nc(C3=N[C@@H](C(=O)O)CS3)sc2c1 [luciferin 6-methyl ether, D-luciferin 6' methyl ether, reference compound]
result: 3491

query: # iterate: "COC(=O)[C@H]1CSC(c2ccc3cc(Oc4ccc(C(F)(F)F)cc4[N+](=O)[O-])ccc3n2)=N1"
result: 1492

query: # iterate: CN(Cc1ccccc1)c1ccc2nc(C3=NC(C(=O)O)CS3)sc2c1 (centres unmarked)
result: 50632712

query: # iterate: O=C(O)[C@H]1CSC(c2nc3ccc(OCc4ccccc4)cc3s2)=N1 [luciferin 6-benzyl ether, reference compound]
result: 84034

query: # iterate: O=C(O)[C@H]1CSC(c2nc3ccc(OCCO)cc3s2)=N1 [2hydroxyethoxyluciferin ether]
result: 76612

query: # iterate: CCN(CC)c1ccc2nc(C3=NC(C(=O)O)CS3)sc2c1 (centres unmarked)
result: 1304383

====

# TEST_SYSTEM: CYP4A11 (Homo sapiens, UniProt Q02928)
# Construct: purchased Discovery Labware (BD/Gentest); host or cells: insect cell expression system (membrane fractions)
# Sequence (Q02928 5-519): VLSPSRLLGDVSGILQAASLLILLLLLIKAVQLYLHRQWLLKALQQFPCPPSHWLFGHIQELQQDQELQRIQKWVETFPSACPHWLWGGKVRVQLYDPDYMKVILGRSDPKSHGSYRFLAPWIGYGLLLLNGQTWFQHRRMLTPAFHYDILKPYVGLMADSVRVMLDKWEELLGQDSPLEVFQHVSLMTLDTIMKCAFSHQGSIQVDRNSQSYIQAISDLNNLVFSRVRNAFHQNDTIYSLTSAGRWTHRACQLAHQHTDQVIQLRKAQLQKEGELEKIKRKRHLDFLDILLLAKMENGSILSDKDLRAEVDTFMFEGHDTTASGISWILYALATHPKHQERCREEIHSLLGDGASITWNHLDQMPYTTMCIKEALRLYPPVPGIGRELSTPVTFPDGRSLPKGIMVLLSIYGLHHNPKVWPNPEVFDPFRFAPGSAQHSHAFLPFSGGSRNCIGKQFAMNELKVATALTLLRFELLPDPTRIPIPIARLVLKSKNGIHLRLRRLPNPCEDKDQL
# EXPERIMENT_DESCRIPTION: Two-step luminescent P450 screen of luciferin derivatives
# Format: biochemical
# CONDITION_SET: result in words
MEASUREMENT_LABEL: P450 activity / selectivity with the derivative as substrate

{"columns": ["COMPOUND", "TEST_SYSTEM", "RESULT_VALUE"],
 "data": [
  ["COc1cc(OC)c2nc(C3=NC(C(=O)O)CS3)sc2c1 (stereo not shown)", "CYP4A11 (Homo sapiens, UniProt Q02928)", "did not react"],
  ["COc1cc(C)c2nc(C3=NC(C(=O)O)CS3)sc2c1 (stereo not shown)", "CYP4A11 (Homo sapiens, UniProt Q02928)", "did not react"]
]}

====

# TEST_SYSTEM: QuantiLum Luciferase (Photinus pyralis)
# Construct: purchased Promega Corporation E170
# EXPERIMENT_DESCRIPTION: Scaffolds: light emission of luciferin derivatives with QuantiLum luciferase alone, + Co A, + DTT, + Co A and DTT
# Format: biochemical, firefly
# CONDITION_SET: Derivative Conc. 6.25; Co A
I'd appreciate it if you marked entries condition met when light emission values is lower than 20000 and condition not met when it is not.

query: Is light emission values strictly under 20000 for the entry CN(Cc1ccccc1)c1ccc2nc(C3=NC(C(=O)O)CS3)sc2c1 (centres unmarked) ?
result: condition not met

query: # iterate: O=C(O)[C@H]1CSC(c2nc3ccc(OCc4ccccc4)cc3s2)=N1 [luciferin 6-benzyl ether, reference compound]
result: condition not met

query: # iterate: CCN(CC)c1ccc2nc(C3=NC(C(=O)O)CS3)sc2c1 (centres unmarked)
result: condition not met

query: # iterate: "COC(=O)[C@H]1CSC(c2ccc3cc(Oc4ccc(C(F)(F)F)cc4[N+](=O)[O-])ccc3n2)=N1"
result: condition met

query: # iterate: "NCCCOc1ccc2nc(C3=N[C@@H](C(=O)O)CS3)sc2c1"
result: condition not met

query: # iterate: O=C(O)[C@H]1CSC(c2nc3ccc(OCCO)cc3s2)=N1 [2hydroxyethoxyluciferin ether]
result: condition met

query: # iterate: "O=C(O)[C@H]1CSC(c2ccc3cc(Oc4ccc(C(F)(F)F)cc4[N+](=O)[O-])ccc3n2)=N1"
result: condition met

query: # iterate: COc1ccc2nc(C3=N[C@@H](C(=O)O)CS3)sc2c1 [luciferin 6-methyl ether, D-luciferin 6' methyl ether, reference compound]
result: condition met

====

# TEST_SYSTEM: QuantiLum Luciferase (Photinus pyralis, UniProt P08659)
# Construct: purchased Promega Corporation E170
# EXPERIMENT_DESCRIPTION: Scaffolds: light emission of luciferin derivatives with QuantiLum luciferase alone, + Co A, + DTT, + Co A and DTT
# Type: biochemical, firefly
# CONDITION_SET: Derivative Conc. 100; DTT
Consider the following compounds; for each one, report its light emission values.

query: Query (compound): O=C(O)[C@H]1CSC(c2nc3ccc(OCCO)cc3s2)=N1 [2hydroxyethoxyluciferin ether] ; field requested: light emission values
result: 128249

query: # iterate: CCN(CC)c1ccc2nc(C3=NC(C(=O)O)CS3)sc2c1 (centres unmarked)
result: 2180983

query: # iterate: CN(Cc1ccccc1)c1ccc2nc(C3=NC(C(=O)O)CS3)sc2c1 (centres unmarked)
result: 50806656

query: # iterate: "O=C(O)[C@H]1CSC(c2ccc3cc(Oc4ccc(C(F)(F)F)cc4[N+](=O)[O-])ccc3n2)=N1"
result: 21472

query: # iterate: "COC(=O)[C@H]1CSC(c2ccc3cc(Oc4ccc(C(F)(F)F)cc4[N+](=O)[O-])ccc3n2)=N1"
result: 1618

query: # iterate: O=C(O)[C@H]1CSC(c2nc3ccc(OCc4ccccc4)cc3s2)=N1 [luciferin 6-benzyl ether, reference compound]
result: 54592

query: # iterate: COc1ccc2nc(C3=N[C@@H](C(=O)O)CS3)sc2c1 [luciferin 6-methyl ether, D-luciferin 6' methyl ether, reference compound]
result: 5399

query: # iterate: "NCCCOc1ccc2nc(C3=N[C@@H](C(=O)O)CS3)sc2c1"
result: 994617
